Test: Pharmacokinetic study after single intravenous administration to mice
Format: in vivo
Settings: male, ICR, plasma, single intravenous 0.1 mg/kg, representative (one time point per mouse)

>  <smiles.input>
COc1ccc(CC(=O)c2ccc3c(c2OC)C=CC(C)(C)O3)cc1OC

>  <half-life, min>
26.3

$$$$

* * *

Test: Pharmacokinetic study after single intravenous administration to mice
Assay type: in vivo
Details: male, ICR, plasma, single intravenous 0.1 mg/kg, representative (one time point per mouse)

>  <smiles.input>
COc1ccc(CC(=O)c2ccc3c(c2OC)C=CC(C)(C)O3)cc1OC

>  <quantity.unit>
mL/min/kg

>  <clearance>
69.4

$$$$

* * *

Experiment: Pharmacokinetic study after single intravenous administration to rats
Assay type: in vivo
Details: male, Sprague-Dawley, rat, plasma, single intravenous 0.1 mg/kg, n = 4, mean ± S.D.

>  <smiles.input>
COc1ccc(CC(=O)c2ccc3c(c2OC)C=CC(C)(C)O3)cc1OC

>  <AUC(0-inf) [ng·h/mL]>
55.8

$$$$
